# Experiment Notes: qHTS drug screen for cell cycle checkpoint inhibitors in PARPi-resistant BRCA-mutant ovarian cancer cell lines. (AID 1963452); also: potency is read from the fitted curve at half-maximal effect
# Test Settings: PEO1/OlaR viability, CellTiter-Glo luminescence, 96 h
Calls of active or inactive are those of the source. Calls follow the shape of the full dose curve.
Readout Type: Potency

>>> print(df.to_string())
                                     smiles  readout_type        result_value
0  CCc1c2c(nc3ccc(OC(=O)N4CCC(N5CCCCC5)CC4)cc13)-c1cc3c(c(=O)n1C2)COC(=O)[C@]3(O)CC       Potency  0.0309 µM (active)
1   COC(=O)Nc1nc2ccc(C(=O)c3ccccc3)cc2[nH]1       Potency   0.436 µM (active)
2  CC(C)C[C@H](NC(=O)[C@H](CCc1ccccc1)NC(=O)CN1CCOCC1)C(=O)N[C@@H](Cc1ccccc1)C(=O)N[C@@H](CC(C)C)C(=O)[C@@]1(C)CO1       Potency  0.0098 µM (active)
3  COc1cc([C@@H]2c3cc4c(cc3[C@H](O)[C@H]3COC(=O)[C@H]23)OCO4)cc(OC)c1OC       Potency  0.0174 µM (active)

---

# Experiment Notes: qHTS for differential inhibitors of proliferation of Plasmodium falciparum line HB3 (AID 1886);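 also: parasites grown with compound for 72 h before SYBR Green readout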
# Test Settings: Plasmodium falciparum HB3 proliferation inhibition; series mostly up to 28.7 µM
Records with an inconclusive call do not appear. Calls of active or inactive are those of the source. Calls come from the whole dose curve; as a rule, active = well fitted curve in the direction sought with a large enough effect; inconclusive = small, poorly fitted or top-dose-only effect, or another doubt; inactive = no such curve, though single readings can be large or run the other way.
Classes used: 1 for active, 0 for inactive

>>> df
                                   compound  assigned_category
0  CCCCS(=N)(=O)CCC(N)C(=O)O (configuration not stated)                  0
1                         NC(=O)c1cccc(N)c1                  0
2  Nc1nc(N)c2nc(CNc3ccc(C(=O)NC(CCC(=O)O)C(=O)O)cc3)cnc2n1 (configuration not stated)                  0
3         COc1cc2ncnc(Nc3cccc(Cl)c3)c2cc1OC                  1
4  CC1=C(C(=O)O)N2C(=O)[C@@H](NC(=O)C(N)c3ccccc3)[C@H]2SC1 (some centres not stated)                  0
5  CCN(CC)CC#CCOC(=O)C(O)(c1ccccc1)C1CCCCC1 (configuration not stated)                  1
6  Cc1ccc(S(=O)(=O)N[C@@H](Cc2ccccc2)C(=O)CCl)cc1                  0

---

# System: UISO
# Experiment Notes: qHTS assay to identify novel small-molecules to repurpose for Merkel cell carcinoma treatment (AID 1296009); also: nearly all actives have a fitted effect of over 60% in size
# Test Settings: MCC and control cell lines, CellTiter-Glo viability, 72 h; series mostly up to 46 µM
Records with an inconclusive call do not appear. Active and inactive are the calls of the source. The call rests on the fitted dose curve; in most records, active means well fitted inhibition curve with a large enough effect; inconclusive means small, poorly fitted or top-dose-only effect; inactive means flat fitted curve, though single readings scatter.
Labels: active, inactive

In [3]: df
Out[3]:
                                    compound  measurement_target  assigned_category
 0  COc1cc2nc(N3CCCN(C)CC3)nc(NC3CCN(Cc4ccccc4)CC3)c2cc1OC                UISO             active
 1  CCCCS(=N)(=O)CCC(N)C(=O)O (stereo not given)                UISO           inactive
 2  CC(=O)[C@H]1CC[C@H]2[C@@H]3CC=C4C[C@@H](O)CC[C@]4(C)[C@H]3CC[C@]12C                UISO           inactive
 3  CCn1cc(C(=O)O)c(=O)c2cc(F)c(N3CCN(C)CC3)cc21                UISO           inactive
 4  CC(=O)CC(c1ccccc1)c1c(O)c2ccccc2oc1=O (stereo not given)                UISO           inactive
 5  CCN1CCCC1CNC(=O)c1cc(S(N)(=O)=O)ccc1OC (stereo not given)                UISO           inactive
 6  COc1c(N2CCNC(C)C2)c(F)cc2c(=O)c(C(=O)O)cn(C3CC3)c12 (stereo not given)                UISO           inactive
 7  C[C@]12C=CC(=O)C=C1CC[C@@H]1[C@@H]2C(=O)C[C@@]2(C)[C@H]1CC[C@]2(O)C(=O)CO                UISO           inactive
 8                  Cn1nnc2c(C(N)=O)ncn2c1=O                UISO           inactive
 9  CCN(CC)CC#CCOC(=O)C(O)(c1ccccc1)C1CCCCC1 (stereo not given)                UISO           inactive
10        CC(C)OC(=O)C(C(=O)OC(C)C)=C1SC=CS1                UISO           inactive
11         O=P(O)(O)C(O)(Cc1cccnc1)P(=O)(O)O                UISO           inactive
12                   C#CCN[C@@H]1CCc2ccccc21                UISO           inactive
13                  Clc1ccccc1CN1CCc2sccc2C1                UISO           inactive
14     CNS(=O)(=O)Cc1ccc2[nH]cc(CCN(C)C)c2c1                UISO           inactive
15              NCCCC(O)(P(=O)(O)O)P(=O)(O)O                UISO           inactive
16                   CCCCOc1ccc(CC(=O)NO)cc1                UISO             active
17                            O=C(O)c1cccnc1                UISO           inactive
18  O=C(O)CSCC(=O)NC1CCSC1=O (stereo not given)                UISO           inactive
19          O=S(=O)(c1cccc2cnccc12)N1CCCNCC1                UISO           inactive
20  O=c1oc2c(O)c(O)cc3c(=O)oc4c(O)c(O)cc1c4c23                UISO           inactive
21  CCn1cc(C(=O)O)c(=O)c2cc(F)c(N3CCNCC3)cc21                UISO           inactive
22                    CC1=CC(=O)c2ccccc2C1=O                UISO           inactive
23            CN(Cc1cc(Br)cc(Br)c1N)C1CCCCC1                UISO           inactive
24         COc1cnc(NS(=O)(=O)c2ccc(N)cc2)nc1                UISO           inactive

---

# Experiment Notes: Quantitative High-Throughput drug screen in 47 multiple myeloma cell lines against the NCATS MIPE library collection: FR4_PLB cell viability assay (AID 1918924; also: nearly all actives have a fitted effect of over 35% in size; also: potency is read from the fitted curve at half-maximal effect)
# Test Settings: FR4_PLB myeloma cells viability, CellTiter-Glo ATP, 48 h; series mostly up to 45.8 µM
Records with an inconclusive call do not appear. Activity calls are given as the source filed them. Calls follow the shape of the dose curve; as a rule, active = well fitted cell-killing curve with a large enough effect; inconclusive = small, poorly fitted or top-dose-only effect, or effect the other way; inactive = no such curve, though single readings can be large or run the other way.
Readout Type: Potency

>>> print(df.to_string())
                                    compound  readout_type      result_value
 0  CNS(=O)(=O)CCc1ccc2[nH]cc(C3CCN(C)CC3)c2c1       Potency  16.6 µM (active)
 1           Cc1cc(NS(=O)(=O)c2ccc(N)cc2)no1       Potency          inactive
 2  CC(C)OC(=O)OCOP(=O)(CO[C@H](C)Cn1cnc2c(N)ncnc21)OCOC(=O)OC(C)C       Potency          inactive
 3         CNCC[C@H](Oc1cccc2ccccc12)c1cccs1       Potency  3.72 µM (active)
 4  CCOCC(O)COc1ccc(NC(=O)CC[S+](C)C)cc1 (stereo unspecified)       Potency          inactive
 5              O=C(O)c1cc(=O)[nH]c(=O)[nH]1       Potency          inactive
 6  CCN(CC)CC#CCOC(=O)C(O)(c1ccccc1)C1CCCCC1 (stereo unspecified)       Potency          inactive
 7  C[C@]12C=CC(=O)C=C1CC[C@@H]1[C@@H]2C(=O)C[C@@]2(C)[C@H]1CC[C@]2(O)C(=O)CO       Potency          inactive
 8  CC(=O)Oc1ccccc1C(=O)Nc1ncc([N+](=O)[O-])s1       Potency  19.1 µM (active)
 9  CCN[C@H]1C[C@H](C)S(=O)(=O)c2sc(S(N)(=O)=O)cc21       Potency          inactive
10  COc1cc2nc(N3CCCN(C)CC3)nc(NC3CCN(Cc4ccccc4)CC3)c2cc1OC       Potency  5.26 µM (active)
